System: HEK-293T
Experiment: Multiplex assay against HEK293T;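 also: share of the cells with healthy nuclei that show this phenotype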
Assay type: toxicity, cell-based
Conditions: human, 12 h, 1 µM, compound concentration 1 uM, replicate 1
For each entry below, report its Population Tubulin-Different-Phenotype (%) value.
Give the quantity in %, number only.

Given the entry CC(C)(O)CNc1ncc(-c2ccnc(Nc3ccnc(Cl)c3)n2)c(CC2CC2)n1 , report its measured Population Tubulin-Different-Phenotype (%). 75

Moving on to O=C1NCN(c2ccccc2)C12CCN(CCCOc1ccc(F)cc1)CC2 [SPIRAMIDE] 35

And for CNCc1ccc(-c2cc(-c3nc(-c4ccc(S(=O)(=O)C(C)C)cc4)cnc3N)on2)cc1 [BERZOSERTIB] ? 13

What would you report for C=CC(=O)Nc1cc2c(Nc3ccc(F)c(Cl)c3)ncnc2cc1OCCCN1CCOCC1.Cl.Cl [CANERTINIB DIHYDROCHLORIDE] ? 82
